Give measured Kd for each item. Keep answers brief.
EXPERIMENTAL SYSTEM: T1, cynomolgus SIRPβ1v3 (XP_005568593) extracellular domain + His-tag (cynomolgus monkey)
T1 construct: SPR analyte; also called Cyno SIRPβ1v3 XP_005568593; cynoSIRPβ1v3; not shown: His-tag
T1 chain: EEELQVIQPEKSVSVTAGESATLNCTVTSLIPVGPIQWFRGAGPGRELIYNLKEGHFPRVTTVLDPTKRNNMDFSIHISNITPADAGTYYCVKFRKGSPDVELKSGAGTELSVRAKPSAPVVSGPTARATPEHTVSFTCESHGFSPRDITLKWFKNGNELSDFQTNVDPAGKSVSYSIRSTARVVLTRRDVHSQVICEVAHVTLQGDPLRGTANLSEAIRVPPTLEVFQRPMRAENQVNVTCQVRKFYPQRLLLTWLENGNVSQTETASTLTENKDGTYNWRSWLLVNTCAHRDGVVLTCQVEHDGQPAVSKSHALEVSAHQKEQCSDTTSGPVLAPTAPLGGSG
PROTOCOL SUMMARY: SPR, antibody captured, ECD-His analyte
Give bare numbers, in nM.

Consider the worked cases shown below.
>>> numeric_readout("Antibody E17 (antibody, human IgG1, kappa, L234A L235A, V domains shown) VH: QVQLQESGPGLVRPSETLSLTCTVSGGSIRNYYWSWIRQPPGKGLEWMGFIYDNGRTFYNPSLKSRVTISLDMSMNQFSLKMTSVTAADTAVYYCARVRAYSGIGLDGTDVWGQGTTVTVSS VL: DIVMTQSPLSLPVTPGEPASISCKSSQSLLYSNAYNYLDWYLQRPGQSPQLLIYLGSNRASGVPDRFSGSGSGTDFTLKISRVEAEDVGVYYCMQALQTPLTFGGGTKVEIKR")
27
>>> numeric_readout("Antibody E10 (antibody, human IgG1, kappa, L234A L235A, V domains shown) VH: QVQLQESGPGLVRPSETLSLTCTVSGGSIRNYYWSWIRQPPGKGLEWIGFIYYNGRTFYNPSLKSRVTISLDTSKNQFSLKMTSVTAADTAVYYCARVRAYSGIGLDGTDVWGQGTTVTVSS VL: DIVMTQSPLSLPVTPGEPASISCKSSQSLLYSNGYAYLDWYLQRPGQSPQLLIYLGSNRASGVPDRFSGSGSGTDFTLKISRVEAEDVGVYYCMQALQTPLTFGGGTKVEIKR")
15.7

# evaluate next
Measured Kd, Antibody E12 (antibody, human IgG1, kappa, L234A L235A, V domains shown) VH: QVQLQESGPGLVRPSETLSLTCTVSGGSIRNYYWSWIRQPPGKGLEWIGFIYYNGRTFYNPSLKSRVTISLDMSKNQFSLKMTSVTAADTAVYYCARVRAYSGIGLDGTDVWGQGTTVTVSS VL: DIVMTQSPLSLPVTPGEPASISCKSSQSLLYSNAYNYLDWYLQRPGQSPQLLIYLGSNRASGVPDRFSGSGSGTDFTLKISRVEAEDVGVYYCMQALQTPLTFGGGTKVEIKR : 27.9

// provenance: patent US20230012273A1
